Reported logP^a) is given for each of the following molecules.
Assay Comment: logP determination by HPLC on a reversed-phase column (C18)
Type: physicochemical
Recorded Conditions: HPLC-MS method a), reversed-phase column (C18); Table I-T3
Just the number.

Task: Which logP^a) is listed for CCc1cc(C(F)(F)C(F)(F)F)cc(C)c1-n1cc(-c2ccc(Cl)c(C(=O)NC3(C#N)CC3)c2)cn1 [I-T3-80] ?
Output: 4.2

Task: Which logP^a) is listed for Cc1cc(C(F)(C(F)(F)F)C(F)(F)F)cc(C)c1-n1cc(-c2cnc(Cl)c(C(=O)NC3(C#N)CC3)c2)cn1 [I-T3-21] ?
Output: 3.7

Task: Which logP^a) is listed for Cc1cc(C(F)(C(F)(F)F)C(F)(F)F)cc(C)c1-n1cc(-c2cc(C(=O)NC3(C#N)CC3)c(F)cc2Cl)cn1 [I-T3-12] ?
Output: 4.7

Task: Which logP^a) is listed for CCc1cc(C(F)(C(F)(F)F)C(F)(F)F)cc(Cl)c1-n1cc(-c2ccc(Cl)c(C(=O)NC3(C#N)CC3)c2)cn1 [I-T3-71] ?
Output: 4.5

----------
Reported logP^a) is given for each of the following compounds.
Assay Comment: logP determination by HPLC on a reversed-phase column (C18)
Format: physicochemical
Recorded Conditions: HPLC-MS method a), reversed-phase column (C18); Table I-T3
Just the number.

Known results for compounds:
# Structure Smiles, Measured Number
records = [
    ("Cc1cc(C(F)(C(F)(F)F)C(F)(F)F)cc(C)c1-n1cc(-c2cc(C(=O)NC3CC3)c(Cl)cc2F)cn1", 4.5),
    ("Cc1cc(C(F)(C(F)(F)F)C(F)(F)F)cc(C)c1-n1cc(-c2ccc(Cl)c(C(=O)NC3(C(F)(F)F)CC3)c2)cn1", 4.6),
    ("N#CC1(NC(=O)c2cc(-c3cnn(-c4c(Cl)cc(OC(F)(F)F)cc4Cl)c3)ccc2Cl)CC1", 3.6),
]

Task: Which logP^a) is listed for `O=C(NC1CC1)c1cc(-c2cnn(-c3ncc(C(F)(F)F)cc3Cl)c2)ccc1Cl` ?
Output: 3.2

Task: Which logP^a) is listed for `Cc1cc(C(F)(C(F)(F)F)C(F)(F)F)cc(C)c1-n1cc(-c2cc(C(=O)NC3CC3)c(F)cc2Cl)cn1` ?
Output: 4.9

Task: Which logP^a) is listed for `CCc1cc(C(F)(C(F)(F)F)C(F)(F)F)cc(C)c1-n1cc(-c2cccc(C(=O)NC3(C#N)CC3)c2F)cn1` ?
Output: 4.5

Task: Which logP^a) is listed for `O=C(NC1CC1)c1cc(-c2cnn(-c3c(Cl)cc(OC(F)(F)F)cc3Cl)c2)ccc1Cl` ?
Output: 3.6

Task: Which logP^a) is listed for `Cc1cc(C(F)(C(F)(F)F)C(F)(F)F)cc(C)c1-n1cc(-c2cccc(C(=O)NC3CC3)c2)cn1` ?
Output: 3.3

----------
System: Boophilus microplus Parkhurst strain, SP-resistant
Assay Comment: Boophilus microplus - dip test
Type: in vivo
Recorded Conditions: application rate 100 ppm; dip of engorged adult female ticks; after 7 days
Reported efficacy (laying of fertile eggs) is given for each of the following molecules.

# Molecule, Target Under Test, Result
rows = [
    ("Cc1ncc(-c2cnn(-c3c(Cl)cc(C(F)(C(F)(F)F)C(F)(F)F)cc3C(F)(F)F)c2)cc1C(=O)N(C)C1(C#N)CC1 [I-T3-131]", "Boophilus microplus Parkhurst strain, SP-resistant", "100%"),
    ("N#CC1(NC(=O)c2cc(-c3cnn(-c4c(Cl)cc(C(F)(C(F)(F)F)C(F)(F)F)cc4Cl)c3)cnc2Cl)CC1 [I-T3-43]", "Boophilus microplus Parkhurst strain, SP-resistant", "100%"),
    ("Cc1cc(C(F)(C(F)(F)F)C(F)(F)F)cc(C)c1-n1cc(-c2cnc(C)c(C(=O)NC3(C#N)CC3)c2)cn1 [I-T3-97]", "Boophilus microplus Parkhurst strain, SP-resistant", "100%"),
    ("N#CC1(NC(=O)c2cc(-c3cnn(-c4c(Cl)cc(C(F)(C(F)(F)F)C(F)(F)F)cc4C(F)(F)F)c3)ccc2Cl)CC1 [I-T3-57]", "Boophilus microplus Parkhurst strain, SP-resistant", "100%"),
    ("Cc1cc(C(F)(C(F)(F)F)C(F)(F)F)cc(C(F)(F)F)c1-n1cc(-c2cnc(C)c(C(=O)NC3CC3)c2)cn1 [I-T3-117]", "Boophilus microplus Parkhurst strain, SP-resistant", "100%"),
    ("Cc1cc(C(F)(C(F)(F)F)C(F)(F)F)cc(C)c1-n1cc(-c2cnc(C)c(C(=O)NC3CC3)c2)cn1 [I-T3-96]", "Boophilus microplus Parkhurst strain, SP-resistant", "100%"),
]

Task: Which efficacy (laying of fertile eggs) is listed for CN(C(=O)c1cc(-c2cnn(-c3c(Cl)cc(C(F)(C(F)(F)F)C(F)(F)F)cc3C(F)(F)F)c2)cnc1Cl)C1CC1 [I-T3-113] ?
Output: 100%

Task: Which efficacy (laying of fertile eggs) is listed for CCc1cc(C(F)(C(F)(F)F)C(F)(F)F)ccc1-n1cc(-c2cnc(Cl)c(C(=O)NC3CC3)c2)cn1 [I-T3-104] ?
Output: 100%

Task: Which efficacy (laying of fertile eggs) is listed for Cc1cc(C(F)(C(F)(F)F)C(F)(F)F)cc(I)c1-n1cc(-c2ccc(Cl)c(C(=O)NC3CC3)c2)cn1 [I-T3-175] ?
Output: 100%

Task: Which efficacy (laying of fertile eggs) is listed for CCc1cc(C(F)(C(F)(F)F)C(F)(F)F)cc(C)c1-n1cc(-c2ccc(Cl)c(C(=O)NC3CC3)c2)cn1 [I-T3-44] ?
Output: 100%

Task: Which efficacy (laying of fertile eggs) is listed for Cc1cc(C(F)(C(F)(F)F)C(F)(F)F)cc(C(F)(F)F)c1-n1cc(-c2cnc(Cl)c(C(=O)NC3CC3)c2)cn1 [I-T3-106] ?
Output: 100%

Task: Which efficacy (laying of fertile eggs) is listed for N#CC1(NC(=O)c2cc(-c3cnn(-c4c(Cl)cc(C(F)(F)F)cc4Cl)c3)cnc2Cl)CC1 [I-T3-95] ?
Output: 100%

Task: Which efficacy (laying of fertile eggs) is listed for Cc1cc(C(F)(C(F)(F)F)C(F)(F)F)cc(C(F)(F)F)c1-n1cc(-c2cnc(C)c(C(=O)N(C)C3CC3)c2)cn1 [I-T3-118] ?
Output: 100%

Task: Which efficacy (laying of fertile eggs) is listed for Cc1cc(C(F)(C(F)(F)F)C(F)(F)F)cc(Cl)c1-n1cc(-c2ccc(Cl)c(C(=O)NC3(C#N)CC3)c2)cn1 [I-T3-64] ?
Output: 100%

----------
Assay Comment: logP determination by HPLC on a reversed-phase column (C18)
Assay type: physicochemical
Recorded Conditions: HPLC-MS, reversed-phase column (C18); Table I-T3
Lab note: compare log P against 4. Equal or greater, write true (1). Smaller, write false (0).

# Structure Smiles, Qualitative Label
data = [
    ("N#CC1(NC(=O)c2cc(-c3cnn(-c4c(I)cc(C(F)(C(F)(F)F)C(F)(F)F)cc4C(F)(F)F)c3)ccc2Cl)CC1", "true (1)"),
    ("Cc1cc(C(F)(C(F)(F)F)C(F)(F)F)cc(C(F)(F)F)c1-n1cc(-c2cnc(C)c(C(=O)NC3(C#N)CC3)c2)cn1", "false (0)"),
    ("O=C(NC1CC1)c1cc(-c2cnn(-c3c(Cl)cc(C(F)(F)F)cc3Cl)c2)cnc1Cl", "false (0)"),
    ("CCSc1cc(C(F)(C(F)(F)F)C(F)(F)F)cc(C)c1-n1cc(-c2ccc(Cl)c(C(=O)NC3(C#N)CC3)c2)cn1", "true (1)"),
    ("O=C(NC1CC1)c1cc(-c2cnn(-c3ncc(C(F)(F)F)cc3C(F)(F)F)c2)ccc1Cl", "false (0)"),
]

Task: API: above_or_equal(metric=log P, cutoff=4) for item `Cc1cc(C(F)(C(F)(F)F)C(F)(F)F)cc(C(F)(F)F)c1-n1cc(-c2cnc(C)c(C(=O)N(C)C3CC3)c2)cn1`
Output: false (0)

Task: API: above_or_equal(metric=log P, cutoff=4) for item `N#CC1(NC(=O)c2cc(-c3cnn(-c4c(Cl)cc(C(F)(F)F)cc4Cl)c3)cnc2Cl)CC1`
Output: false (0)

----------
Tested on: Rhipicephalus sanguineus
Assay Comment: Rhipicephalus sanguineus - in vitro contact tests with adult brown dog ticks
Assay type: in vivo
Recorded Conditions: application rate 1 μg/cm2; after 48 h; ticks dead or moribund
Assay Metric: efficacy (%)
Write the value in % as a bare number.

# Molecule, efficacy, %
rows = [
    ("COc1ncc(-c2cnn(-c3c(C)cc(C(F)(C(F)(F)F)C(F)(F)F)cc3C)c2)cc1C(=O)NC1(C#N)CC1 [I-T3-141]", 100),
    ("N#CC1(NC(=O)c2cc(-c3cnn(-c4c(Cl)cc(C(F)(C(F)(F)F)C(F)(F)F)cc4C(F)(F)F)c3)cnc2Cl)CC1 [I-T3-114]", 100),
    ("Cc1cc(C(F)(C(F)(F)F)C(F)(F)F)cc(C(F)(F)F)c1-n1cc(-c2cnc(Cl)c(C(=O)NC3(C#N)CC3)c2)cn1 [I-T3-108]", 100),
]

Task: Which efficacy is listed for Cc1cc(C(F)(C(F)(F)F)C(F)(F)F)cc(C(F)(F)F)c1-n1cc(-c2cnc(C)c(C(=O)N(C)C3(C#N)CC3)c2)cn1 [I-T3-123] ?
Output: 80

Values from patent US10150737B2
